Reported pIC50 by item:
# study.target: T1, recombinant human IL-12 (rhIL-12) (human, UniProt P29459 23-219; P29460 23-328)
# T1 construct: disulfide-linked p35/p40 heterodimer (p70); also called IL-12 p70; rec. human IL12
# T1 sequence (looked up) 1: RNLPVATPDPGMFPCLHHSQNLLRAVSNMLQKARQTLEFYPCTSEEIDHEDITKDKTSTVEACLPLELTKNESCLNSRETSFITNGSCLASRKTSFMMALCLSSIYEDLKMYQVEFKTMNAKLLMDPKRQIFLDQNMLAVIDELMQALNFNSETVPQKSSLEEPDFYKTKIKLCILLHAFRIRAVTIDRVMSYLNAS
# T1 sequence (looked up) 2: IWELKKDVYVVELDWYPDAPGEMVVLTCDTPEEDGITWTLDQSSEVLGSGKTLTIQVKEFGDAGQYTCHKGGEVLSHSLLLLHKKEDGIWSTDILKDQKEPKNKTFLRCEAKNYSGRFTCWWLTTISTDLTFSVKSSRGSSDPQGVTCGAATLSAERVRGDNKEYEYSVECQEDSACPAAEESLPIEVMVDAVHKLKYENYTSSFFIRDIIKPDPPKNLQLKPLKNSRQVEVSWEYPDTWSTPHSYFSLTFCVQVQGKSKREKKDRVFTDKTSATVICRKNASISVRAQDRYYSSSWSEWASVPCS
# protocol.notes: receptor binding assay, 125I-hIL-12 on PHA blasts
pIC50 field: float, defined as -log10 of concentration (mol/L).

Y177 (scFv, V domains shown, scFv clone) VH: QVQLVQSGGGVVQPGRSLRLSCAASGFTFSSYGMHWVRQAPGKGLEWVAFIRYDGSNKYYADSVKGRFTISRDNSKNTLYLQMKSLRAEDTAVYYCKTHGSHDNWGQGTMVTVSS VL: SYVLTQPPSVSGTPGQRVTISCSGGRSNIGSNTVKWYQQLPGTAPKLLIYGNDQRPSGVPDRFSGSKSGTSASLAITGVQAEDEADYYCQSYDRGSHPTLIFGTGTKVTVL = 10.30

What value of measured pIC50 is listed for AO3 (scFv, V domains shown, scFv clone; only the CDR3s are tied to it) VH: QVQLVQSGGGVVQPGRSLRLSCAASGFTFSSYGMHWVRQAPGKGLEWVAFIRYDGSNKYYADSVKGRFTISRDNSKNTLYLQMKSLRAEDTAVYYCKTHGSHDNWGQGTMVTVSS VL: SYVLTQPPSVSGTPGQRVTISCSGGRSNIGSNTVKWYQQLPGTAPKLLIYGNDQRPSGVPDRFSGSKSGTSASLAITGVQAEDEADYYCQSYDRGTHPLTMFGTGTKVTVL ?
10.52

What value of measured pIC50 is listed for Y174 (scFv, V domains shown, scFv clone) VH: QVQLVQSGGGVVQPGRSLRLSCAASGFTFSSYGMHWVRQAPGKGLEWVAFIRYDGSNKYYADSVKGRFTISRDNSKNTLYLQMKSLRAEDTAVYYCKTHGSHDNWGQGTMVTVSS VL: SYVLTQPPSVSGTPGQRVTISCSGGRSNIGSNTVKWYQQLPGTAPKLLIYGNDQRPSGVPDRFSGSKSGTSASLAITGVQAEDEADYYCQSYDRGTTPAPEFGTGTKVTVL ?
10.22

What value of measured pIC50 is listed for C6 (scFv, V domains shown, scFv clone) VH: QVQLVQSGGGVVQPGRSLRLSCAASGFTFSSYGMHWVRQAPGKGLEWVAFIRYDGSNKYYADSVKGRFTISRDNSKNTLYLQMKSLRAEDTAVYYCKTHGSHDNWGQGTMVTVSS VL: SYVLTQPPSVSGTPGQRVTISCSGGRSNIGSNTVKWYQQLPGTAPKLLIYGNDQRPSGVPDRFSGSKSGTSASLAITGVQAEDEADYYCQSYDRGQTPSITFGTGTKVTVL ?
9.46

What value of measured pIC50 is listed for J695 (antibody, human IgG1, V domains shown, human IgG1 with lambda light chain) VH: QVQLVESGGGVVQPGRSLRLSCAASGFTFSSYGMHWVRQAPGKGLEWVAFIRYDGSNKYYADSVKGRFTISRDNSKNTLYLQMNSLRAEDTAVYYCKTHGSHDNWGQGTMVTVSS VL: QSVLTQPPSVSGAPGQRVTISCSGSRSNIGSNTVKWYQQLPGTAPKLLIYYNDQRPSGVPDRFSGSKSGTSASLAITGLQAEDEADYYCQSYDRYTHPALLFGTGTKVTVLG ?
10.30
